# Test system: CH strain houseflies
# ASSAY_NOTES: spray application of pyrethrum, percent knockdown as a function of time
# Format: in vivo
# TEST_PARAMETERS: pyrethrum 100 + synergist 100 mg/cc; 20 minutes
REPORTED_ENDPOINT: average percent knockdown, pyrethrum with synergist
Note: a bare number is incomplete; add the unit.

Example results:
C#CCON=C(C)c1ccc(Cl)cc1 [I-D]	39%
C#CCOCc1c(Cl)ccc(Cl)c1Cl [II-E]	44%
C#CCON=Cc1ccc(Cl)cc1Cl [I-G]	36%

Challenge: Look up average percent knockdown, pyrethrum with synergist for this molecule: C#CCON=Cc1cccc2ccccc12 [I-I]
Response given: 29%

* * *

# Test system: Swiss albino, white male mice
# ASSAY_NOTES: acute toxicity and synergism of acute toxicity in mice
# Type: in vivo
# TEST_PARAMETERS: Secobarbital 90 + synergist 215 mg/kg
Entries and their measured number of mice dead, with Secobarbital follow.
Give the value as a plain number.

C#CCOCc1c(Cl)cccc1[N+](=O)[O-]	1
CCOCCOCCOC(C)Oc1ccc2c(c1)OCO2 (stereo not drawn) [Sesoxane, reference compound]	6
C#CCOCc1c(Cl)cccc1Cl	0
C#CCOCc1ccc(Cl)cc1[N+](=O)[O-]	0
C#CCOCc1ccccc1[N+](=O)[O-]	0

# context switch: different compound, same number of mice dead, with Secobarbital
Challenge: Look up number of mice dead, with Secobarbital for this compound: C#CCOCc1ccc(Cl)c(Cl)c1Cl
Response given: 1

* * *

Entries and their measured 24 hour mortality, with Mobam follow.
# System: German male cockroaches (Blatella Germanicus)
# ASSAY_NOTES: topical application to thorax, 24 hour mortality of German male cockroaches
# Format: in vivo
# TEST_PARAMETERS: Mobam dose 0.12 + synergist 0.60, pretreated with synergist two hours before insecticide
Numeric answer only, unit % assumed.

Challenge: Look up 24 hour mortality, with Mobam for this compound: C#CCOC(c1ccc(Cl)cc1)C(C)[N+](=O)[O-] (stereo not shown) [IV-C]
Response given: 60

Challenge: Look up 24 hour mortality, with Mobam for this compound: C#CCON=Cc1cccc([N+](=O)[O-])c1 [I-B]
Response given: 80

Challenge: Look up 24 hour mortality, with Mobam for this compound: C#CCOCc1c(Cl)cccc1Cl [II-H]
Response given: 90

Challenge: Look up 24 hour mortality, with Mobam for this compound: C#CCOCc1c(Cl)cccc1[N+](=O)[O-] [II-K]
Response given: 100

* * *

# Test system: IN/WHO strain house flies
# ASSAY_NOTES: topical application, percent kill after 24 hours, susceptible IN/WHO strain
# Type: in vivo, female)
# TEST_PARAMETERS: GS 13005 0.10 + synergist 0.125 μg/fly
Entries and their measured percent kill after 24 hours, with GS 13005 follow.
Numeric answer only, unit % assumed.

Example results:
C#CCOCc1ccccc1[N+](=O)[O-] [II-P, 2-nitrobenzyl 2-propynyl ether]	69
C#CCON=Cc1cccc([N+](=O)[O-])c1 [I-B]	13
C#CCOCc1ccc([N+](=O)[O-])cc1 [II-Q, 4-nitrobenzyl 2-propynyl ether]	43
C#CCOC(c1ccc(Cl)cc1)C(C)[N+](=O)[O-] (centres unmarked) [IV-C]	63

# context switch: different compound, same percent kill after 24 hours, with GS 13005
Challenge: Look up percent kill after 24 hours, with GS 13005 for this compound: C#CCOCc1cccc2ccccc12 [II-R, α-napthylmethyl 2-propynyl ether]
Response given: 49

* * *

Entries and their measured number of mice dead, synergist alone follow.
# System: Swiss albino, white male mice
# ASSAY_NOTES: acute toxicity and synergism of acute toxicity in mice
# Assay type: in vivo
# TEST_PARAMETERS: synergist 1000 mg/kg i.p., Dimetilan 0; 72 hours; eight mice
Give the value as a plain number.

Example results:
C#CCOCc1c(Cl)cccc1[N+](=O)[O-]	1
C#CCOCc1c(Cl)cccc1Cl	0

# context switch: different compound, same number of mice dead, synergist alone
Challenge: Look up number of mice dead, synergist alone for this compound: C#CCOCc1ccc(Cl)c(Cl)c1Cl
Response given: 0

* * *

# Test system: Wilson strain house flies
# Format: in vivo, Wilson strain (susceptible)
# TEST_PARAMETERS: in vivo
Entries and their measured Contact Synergistic Ratio, Carbaryl follow.
Give the value as a plain number.

Example results:
C#CCn1ncc2cc([N+](=O)[O-])ccc21 [III-A]	143
C#CCn1nc(Cl)c2ccccc21 [III-B]	117
C#CCOCc1c(Cl)ccc(Cl)c1Cl [II-E]	120

Challenge: Look up Contact Synergistic Ratio, Carbaryl for this molecule: C#CCOCc1c(Cl)cccc1Cl [II-H]
Response given: 300

Challenge: Look up Contact Synergistic Ratio, Carbaryl for this molecule: C#CCn1nc(Cl)c2ccc([N+](=O)[O-])cc21 [III-C, N-(2-propynyl)-3-chloro-6-nitroindazole]
Response given: 53

* * *

Entries and their measured percent kill after 24 hours, synergist alone (GS 13005 part of Table XXXI) follow.
# Test system: IN/WHO strain house flies
# ASSAY_NOTES: topical application, percent kill after 24 hours, susceptible IN/WHO strain
# Assay type: in vivo, female)
# TEST_PARAMETERS: GS 13005 0, synergist 1 μg/fly
Numeric answer only, unit % assumed.

Example results:
C#CCOCc1ccc([N+](=O)[O-])c(Cl)c1	10
C#CCOCc1ccc([N+](=O)[O-])cc1	0
C#CCOCc1cccc(Cl)c1[N+](=O)[O-]	7
C#CCOCc1c(Cl)cccc1[N+](=O)[O-]	10
C#CCOCc1c(Cl)cccc1Cl	10

Challenge: Give IN/WHO strain house flies percent kill after 24 hours, synergist alone (GS 13005 part of Table XXXI) for C#CCOCc1ccc(Cl)cc1[N+](=O)[O-]
Response given: 13

* * *

# Test system: Swiss albino, white male mice
# ASSAY_NOTES: acute toxicity and synergism of acute toxicity in mice
# Format: in vivo
# TEST_PARAMETERS: Dimetilan 8 + synergist 240 mg/kg i.p.; 48 hours; eight mice
Entries and their measured number of mice dead, with Dimetilan follow.
Give the value as a plain number.

CCOCCOCCOC(C)Oc1ccc2c(c1)OCO2 (centres unmarked) [Sesoxane, reference compound]	8
C#CCOCc1ccc(Cl)c([N+](=O)[O-])c1	3
C#CCOCc1ccc(Cl)cc1[N+](=O)[O-]	4

Challenge: Look up number of mice dead, with Dimetilan for this compound: C#CCOCc1cc(Cl)c(Cl)cc1Cl
Response given: 0

Challenge: Look up number of mice dead, with Dimetilan for this compound: C#CCOCc1ccc([N+](=O)[O-])cc1
Response given: 1

* * *

# System: Wilson strain house flies
# Type: in vivo, Wilson strain (susceptible)
# TEST_PARAMETERS: LC50 pyrolan alone / LC50 with synergist; synergist to insecticide 5:1 by weight
Entries and their measured Contact Synergistic Ratio, Pyrolan follow.
Give the value as a plain number.

Example results:
C#CCON=Cc1ccc(OC)c(OC)c1	30
C#CCOCc1ccc2c(c1)OCO2	15
C#CCOCc1cc(Cl)c(Cl)cc1Cl	15
C#CCOCc1ccc(Cl)c(Cl)c1Cl	30
C#CCOCc1ccc(Cl)c(Cl)c1	15
C#CCON=Cc1ccc(N(C)C)cc1	20
C#CCON=C(C)c1ccc(Cl)cc1	25
C#CCOC(c1ccc(Cl)cc1Cl)C(C)[N+](=O)[O-] (stereo not shown)	10
C#CCOCc1c(Cl)ccc(Cl)c1Cl	20
C#CCn1nc(Cl)c2ccc([N+](=O)[O-])cc21	10

Challenge: Look up Contact Synergistic Ratio, Pyrolan for this molecule: C#CCn1ncc2ccc(Cl)cc21
Response given: 25

Challenge: Look up Contact Synergistic Ratio, Pyrolan for this molecule: C#CCOCc1ccc(Cl)cc1Cl
Response given: 15

* * *

# Test system: IN/WHO strain house flies
# ASSAY_NOTES: topical application, percent kill after 24 hours, susceptible IN/WHO strain
# Type: in vivo, female)
# TEST_PARAMETERS: Mobam 0.05 + synergist 0.25 μg/fly
Entries and their measured percent kill after 24 hours, with Mobam follow.

Example results:
C#CCON=Cc1cccc([N+](=O)[O-])c1	0%
C#CCOCc1c(Cl)ccc(Cl)c1Cl	5%
C#CCOCc1ccc(Cl)c(Cl)c1Cl	10%

Challenge: Look up percent kill after 24 hours, with Mobam for this compound: C#CCOCc1ccc(Cl)c(Cl)c1
Response given: 4%

Challenge: Look up percent kill after 24 hours, with Mobam for this compound: C#CCON=C(C)c1ccc(Cl)cc1
Response given: 8%

* * *

# System: CH strain houseflies
# ASSAY_NOTES: spray application of pyrethrum, percent knockdown as a function of time
# Assay type: in vivo
# TEST_PARAMETERS: pyrethrum 100 + synergist 100 mg/cc; 25 minutes
REPORTED_ENDPOINT: average percent knockdown, pyrethrum with synergist (%)
Numeric answer only, unit % assumed.

C#CCON=Cc1cccc2ccccc12 [I-I]	40
C#CCOCc1c(Cl)ccc(Cl)c1Cl [II-E]	55
C#CCON=C(C)c1ccc(Cl)cc1 [I-D]	52

# context switch: different compound, same average percent knockdown, pyrethrum with synergist
Challenge: Look up average percent knockdown, pyrethrum with synergist for this compound: C#CCON=Cc1ccc(Cl)cc1Cl [I-G]
Response given: 59
